The reported numbers originate from ChEMBL document CHEMBL3272295.

Tested on: Rattus norvegicus
Assay: Antianxiety activity in Long-Evans rat assessed as reduction in motor activity at 5 mg/kg, po after 2 hrs relative to vehicle-treated control
Assay type: functional
Parameters: scale not given: the % may be the effect or the level left
Binary call on Activity with cut-off 40%: strictly below means criterion met, and equality or higher means criterion not met.

[[record]]
compound = "CC1CCC2=C(C1)c1c(O)cc(CCCCCc3ccc(F)cc3)cc1OC2(C)C (stereo unspecified)"
class_name = "criterion met"

[[record]]
compound = "Cc1ccc(CCCC(C)c2cc(O)c3c(c2)OC(C)(C)C2=C3CC(C)CC2)cc1 (stereo unspecified)"
class_name = "criterion met"

[[record]]
compound = "CC1CSC2=C1c1c(O)cc(C(C)CCCc3ccc(F)cc3)cc1OC2(C)C (stereo unspecified)"
class_name = "criterion not met"

[[record]]
compound = "C#CCN1CCC2=C(C1)c1c(OC(=O)C(C)CCN3CCOCC3)cc(C(C)CCCc3ccc(F)cc3)cc1OC2(C)C.Cl (stereo unspecified)"
class_name = "criterion not met"

[[record]]
compound = "CC1CCC2=C(C1)c1c(O)cc(C(C)CCCc3ccc(F)cc3)cc1OC2(C)C (stereo unspecified)"
class_name = "criterion not met"

[[record]]
compound = "CC1CCC2=C(C1)c1c(O)cc(C(C)CCCc3ccccc3)cc1OC2(C)C (stereo unspecified)"
class_name = "criterion met"

